Tested on: NCI-H460 lung
Test: NCI-60 one-dose screen, 48 h
Conditions: 10 µM unless noted
Protocol: Growth inhibition of the NCI-H460 human Non-Small Cell Lung tumor cell line is measured as a screen for anti-cancer activity. Cells are grown in 96 well plates and exposed to the test compound for 48 hours. Compounds are tested at a single concentration, which is 10^-5 M for most compounds. The reported endpoint is percent growth (GI% or GIPRCNT), where numbers from 0 - 100% represent growth inhibition, and numbers from -100% - 0 represent cell death. […]
The panel holds about 83,000 compounds, 20% with a hit somewhere; the sample as a whole holds those more often. Active and inactive are the calls of the source. The calls were made as follows: active = growth percent below 10; inactive = the rest.
Outcomes: active, inactive

COMPOUND	ASSAYED SYSTEM	DISCRETE LABEL
CCOC(=O)c1c(C)c2c(n1Cc1ccccc1)CSCC2=O	NCI-H460 lung	active
C[C@H](C(=O)N(CCc1ccc(Cl)c(Cl)c1)Cc1cncs1)[C@@H]1CC[C@H](C[C@H](C)n2cc(CN3CCC(c4ccc(Cl)cc4)CC3)nn2)O1	NCI-H460 lung	inactive
CN(C)c1ccc(-c2nc(-c3ccccc3)c(-c3ccccc3)[nH]2)cc1	NCI-H460 lung	inactive
CC(=O)O[C@H]1C[C@@H]2C(C)(C)C(=O)CC[C@@]2(C)c2ccc(C(C)C)cc21	NCI-H460 lung	inactive
c1ccc(CCNc2c3ccccc3nc3ccccc23)cc1	NCI-H460 lung	inactive
O=C(O)c1ccc(-c2ccc(/C=N/Nc3nc(Nc4ccccc4)nc(N4CCCCC4)n3)o2)cc1	NCI-H460 lung	inactive
O=C1C(Nc2ccccn2)=C(I)C(=O)c2ncccc21	NCI-H460 lung	active
CCOC(=O)C#Cc1c(C(=O)OCC)nnn1Cc1ccc(C(F)(F)F)cc1	NCI-H460 lung	inactive
CCOC(=O)c1c(C)nc2ccccc2c1/C=C/c1cccs1	NCI-H460 lung	inactive
O=C(Nc1cnc(Nc2ccc(N3CCOCC3)nc2)nc1Oc1ccc(C(F)(F)F)cc1)c1ccncc1	NCI-H460 lung	inactive
CC(C)=CCNc1ncnc2c1ncn2C1OC(CO)C(O)C1O (stereo not given)	NCI-H460 lung	active
CCN(CC)CCCN1C(=O)c2c(c(C)c3c(oc4ccc(O)cc43)c2C)C1=O	NCI-H460 lung	active
O=C(Nc1ccc(Cl)cc1)Oc1c(Cl)c(Cl)c(Cl)c(Cl)c1Cl	NCI-H460 lung	inactive
O=C1Nc2ccccc2/C1=C\c1c[nH]c2ccc(Br)cc12	NCI-H460 lung	inactive
C=C1CC[C@@H]2C(C)(C)[C@@H](O)CC[C@@]2(C)[C@@H]1COc1ccc2ccc(=O)oc2c1	NCI-H460 lung	inactive
COc1cccc(CCNc2ncnc3c2ncn3Cc2nnc3c4ccccc4c(Cl)nn23)c1	NCI-H460 lung	inactive
NC(=O)c1c(NC(=O)c2cccc(C(F)(F)F)c2)sc2c1CCC(=O)C2	NCI-H460 lung	active
COc1cc(C(=O)c2c(-c3ccccc3)oc3c(OC)cccc23)cc(OC)c1OC	NCI-H460 lung	active
CC[N+]1(CC)CC[N+]2(CCCC(C)CC2)CC1 (stereo not given)	NCI-H460 lung	inactive
CCN1CCN(CCNc2nccc(-c3c(-c4ccc(F)c(OC)c4)nc4sccn34)n2)S1(=O)=O	NCI-H460 lung	inactive

----------
System: HOP-62 NSCLC
Assay: NCI-60 one-dose screen, 48 h (100 = growth as untreated, 0 = no growth, -100 = all killed)
Details: 10 µM unless noted
Procedure: Growth inhibition of the HOP-62 human Non-Small Cell Lung tumor cell line is measured as a screen for anti-cancer activity. Cells are grown in 96 well plates and exposed to the test compound for 48 hours. Compounds are tested at a single concentration, which is 10^-5 M for most compounds. The reported endpoint is percent growth (GI% or GIPRCNT), where numbers from 0 - 100% represent growth inhibition, and numbers from -100% - 0 represent cell death. […]
About 83,000 compounds went through this panel and 20% of them were active in at least one assay; those are over-represented in the sample as a whole. Calls of active or inactive are those of the source. How the source made its calls: active means growth percent below 10; inactive means the rest.

MOLECULE	growth
C#CC#CC#CC#CC#CC#CC#CC#CC[C@@H]1OC[C@@H](COC(=O)O[C@@H](C(=O)O[C@H]2C[C@@]3(O)[C@@H](OC(=O)c4ccccc4)[C@@H]4[C@]5(OC(C)=O)CO[C@@H]5C[C@H](O)[C@@]4(C)C(=O)[C@H](OC(C)=O)C(=C2C)C3(C)C)[C@@H](NC(=O)c2ccccc2)c2ccccc2)O1	95.2% (inactive)
Cc1nc2c(c(=O)[nH]1)C(c1ccccc1)c1ccc3ccccc3c1O2 (stereo not drawn)	20.2% (inactive)
Cc1ccc(CNc2c3ccccc3nc3ccccc23)cc1	43.7% (inactive)
c1nc2ccc(-c3cc4ccc5[nH]ncc5c4c4c3CCCC4)cc2[nH]1	74.3% (inactive)
CC/C=C\C[C@H](O)C/C=C1/C(=O)C=C[C@@H]1C/C=C\CCCC(=O)O	96.9% (inactive)
O=C(Nc1ccccc1N1CCCC1=O)c1oc2ccc(F)cc2c1-c1cnn(-c2ccccc2)c1	55.1% [50 µM] (inactive)
C=CC(=O)Nc1ccc(Nc2nccc(-c3ccc(N4CCCC4)c(C#N)c3)n2)cc1	19.2% (inactive)
COc1ccc(C(=O)Cn2c(C(=O)c3ccc(OC)cc3)nc3ccccc32)cc1	37.8% (inactive)

----------
system: HT29 colon; assay: NCI-60 one-dose screen, 48 h (100 = growth as untreated, 0 = no growth, -100 = all killed); details: 10 µM unless noted
About 83,000 compounds went through this panel and 20% of them were active in at least one assay; those are over-represented in the sample as a whole.
Label yes (1) when growth < 70%; otherwise no (0).

MOLECULE	DISCRETE LABEL
O=C(NNc1cnccn1)c1nc2cc(F)ccc2n2cccc12	yes (1)
CN(CCCNC(=O)Cc1ccc2ccc3cccc4ccc1c2c34)CCCNc1cc(-c2ccc3ccccc3c2)nc2ccccc12	yes (1)
C=C1C(=O)O[C@H]2[C@H]1CC/C(Cn1cc(CCC)nn1)=C\CC[C@@]1(C)O[C@@H]21	yes (1)
Nc1nc(N)c2c(n1)NC(c1cccc(Nc3ccnc4cc(C(F)(F)F)ccc34)c1)CC(c1ccccc1)=N2 (stereo not drawn)	yes (1)
O=C(CN1CCN(c2cc3c(cc2F)c(=O)c(C(=O)O)cn3C2CC2)CC1)N/N=C/c1ccco1	no (0)
C=C(C)[C@@H]1CC[C@]2(C(N)=O)CC[C@]3(C)[C@H](CC[C@@H]4[C@@]5(C)CC[C@H](OCCC#N)C(C)(C)[C@@H]5CC[C@]43C)[C@@H]12	no (0)
Nc1[nH]c(=S)nc2oc(-c3ccccc3)c(-c3ccccc3)c12	no (0)

----------
system: SK-MEL-5 melanoma; assay: NCI-60 one-dose screen, 48 h (100 = growth as untreated, 0 = no growth, -100 = all killed); conditions: 10 µM unless noted
Compounds without any hit were thinned out: in the full panel of roughly 83,000, 20% have a hit.
Definition: the class of an entry is the range in class 0 (below -30%), class 1 (-30% to below 90%), class 2 (90% or more) that contains its growth.

COMPOUND	ASSAYED SYSTEM	DISCRETE LABEL
CCN1CCN(CCNc2nccc(-c3c(-c4ccc(F)c(OC)c4)nc4sccn34)n2)S1(=O)=O	SK-MEL-5 melanoma	class 1
Cc1cccc[n+]1C1c2ccccc2-c2ccccc21	SK-MEL-5 melanoma	class 2
CC1(C)CC[C@]23CC[C@]4(C)[C@H](CC[C@@H]5[C@@]6(C)C/C(=C/c7ccncc7)C(=O)C(C)(C)[C@@H]6CC[C@]54C)[C@H]2[C@H]1OC3	SK-MEL-5 melanoma	class 1
COc1ccc(Oc2nc(Nc3ccc(N4CCOCC4)cc3)ncc2NC(=O)Nc2cc(OC)cc(OC)c2)cc1	SK-MEL-5 melanoma	class 0
COc1cccc(Nc2ncnc3cc(NC(=O)CCl)ccc23)c1	SK-MEL-5 melanoma	class 0
CCCC(CC)(C(=O)Nc1ccc2nc(C)cc(N)c2c1)C(=O)Nc1ccc2nc(C)cc(N)c2c1	SK-MEL-5 melanoma	class 2
Cc1nc2ccccc2c(/C=C/c2ccccc2)c1C(=O)/C=C/c1ccccc1	SK-MEL-5 melanoma	class 1
O=S(=O)(Nc1cc(Sc2cccc3cccnc23)c(O)c2ccccc12)c1ccccc1	SK-MEL-5 melanoma	class 1
C=CCOC(=O)C1=C(C)N(CC)C(=O)NC1c1c(Cl)n(C)c2ccccc12 (centres undefined)	SK-MEL-5 melanoma	class 2

----------
The reader will find reported growth values listed item by item below.
tested on: BT-549 breast; assay: NCI-60 one-dose screen, 48 h (100 = growth as untreated, 0 = no growth, -100 = all killed); conditions: 10 µM unless noted
This is part of a sample that, as a whole, favours compounds with a hit. Of some 83,000 tested, about 20% had one in any assay. Calls of active or inactive are those of the source. How the source made its calls: active means growth percent below 10; inactive means the rest.
ASSAY METRIC: growth

COMPOUND	ASSAYED SYSTEM	RESULT
CCOC(=O)C1=C(C)/C(=C\c2[nH]c(C)c(C(=O)OCC)c2C)N=C1C	BT-549 breast	98.1% (inactive)
O=S(=O)(Oc1ccc(Br)cc1)c1ccc(Cl)cc1	BT-549 breast	99.8% (inactive)
CCN1C(=O)N(CC)C2C1N=C(SCc1ccc(Cl)cc1)N2/N=C/C=C/c1ccccc1OC (stereo unspecified)	BT-549 breast	106% (inactive)
CN1CCN(C(=S)SCCCCOc2cc(=O)oc3ccccc23)CC1	BT-549 breast	81.3% (inactive)
N=C(N)c1ccc(-c2ccc(-c3ccccc3)s2)cc1	BT-549 breast	90.6% (inactive)
Clc1ccccc1-c1cnn2cc(-c3ccccc3)cnc12	BT-549 breast	83.1% (inactive)
Nc1ncnc2c1N=C(c1ccc3c(c1)OCO3)CC(c1cccc(Nc3ccnc4cc(C(F)(F)F)ccc34)c1)N2 (stereo unspecified)	BT-549 breast	112% (inactive)
O=C(NC(Cc1nnc2n(Cc3ccccc3)c(=O)c3c4c(sc3n12)CCCC4)c1ccccc1)c1ccccc1 (stereo unspecified)	BT-549 breast	100% (inactive)
CC(C)(C)c1cc(Cl)c(O)c(CNCCO)c1	BT-549 breast	109% (inactive)
C#COc1cccc(Nc2ncnc3cc(NC(=O)[C@@H](C)Cl)ccc23)c1	BT-549 breast	22.2% [6.25 µM] (inactive)
COc1ccc(Cn2cc3c(c2-c2ccccc2)CCc2cnoc2-3)cc1	BT-549 breast	45.3% (inactive)
CCCCCN(CCCCC)CC(O)c1cc(C)c2ccc3cc(C(C)C)ccc3c2c1 (stereo unspecified)	BT-549 breast	90.5% (inactive)
C=Cc1cnc(Nc2ccc(OC)cc2)nc1NCCCNC(=O)C1CCC1	BT-549 breast	26.4% (inactive)
COc1ccc(/C=C(/C(=O)n2cnnn2)c2cc(OC)c(OC)c(OC)c2)cc1	BT-549 breast	38.2% (inactive)
Cc1ccc(-c2nc(/C=C3/C(=O)Nc4ccc(F)cc43)c3ccccn23)cc1	BT-549 breast	111% (inactive)
O=[N+]([O-])c1cc(NS(=O)(=O)c2ccccc2)ccc1NS(=O)(=O)c1ccccc1	BT-549 breast	74.9% (inactive)
COC(=O)c1cc(Br)ccc1O	BT-549 breast	103% (inactive)
CCOC(=O)c1c(C)c2c(n1Cc1ccccc1)CSCC2=O	BT-549 breast	-25.9% [100 µM] (active)
CCN(CC)c1ccc(/C=N/NC(=O)Cc2ccc(Nc3ccnc(C(F)(F)F)c3)cc2)c(O)c1	BT-549 breast	41.9% (inactive)
COc1ccc(/C(C)=C(\c2ccc(Cl)cc2)c2ccc(OCCN3CCCCC3)cc2)cc1	BT-549 breast	73.1% (inactive)
CN1CCN(Cc2ccc(NC(=O)c3cncc(C#Cc4cnc5ccc(Cl)nn45)c3)cc2C(F)(F)F)CC1	BT-549 breast	-6.27% (active)
